For each record, write down the corresponding Plant response rating, Velvetleaf.
# Test system: velvetleaf
# assay_explanation: Test A pre-/postemergence herbicide test
# Format: in vivo, Abutilon theophrasti
# condition_notes: Preemergence, 1000 g ai/ha; visual rating on 0 to 100 scale (0 no effect, 100 complete control), approx. 10 days
Form: value (number only, do not type unit).

Tested on velvetleaf: Cc1ccccc1NC(=O)C1C(=O)NCC1c1cc(F)c(F)c(F)c1 (racemic) . Observed Plant response rating, Velvetleaf: 0

Tested on velvetleaf: CS(=O)(=O)c1ccccc1NC(=O)C1C(=O)NCC1c1ccc(Cl)c(Cl)c1 (centres unmarked) . Observed Plant response rating, Velvetleaf: 0

Tested on velvetleaf: O=C1NCC(c2ccc(Cl)c(Cl)c2)C1C(=O)Nc1ccccc1C(F)(F)F (racemic) . Observed Plant response rating, Velvetleaf: 0

Tested on velvetleaf: O=C1NCC(c2ccc(F)c(F)c2)C1C(=O)Nc1ccccc1[N+](=O)[O-] (racemic) . Observed Plant response rating, Velvetleaf: 30

Tested on velvetleaf: Cn1ccc(NC(=O)C2C(=O)NCC2c2ccc(F)c(F)c2)n1 (centres unmarked) . Observed Plant response rating, Velvetleaf: 0
